Provide the reported T/C of each item.
System: L1210 leukemia ip in BDF1 mice, survival T/C
assay_explanation: NCI In Vivo Anticancer Drug Screen. Data for tumor model L1210 Leukemia (intraperitoneal) in B6D2F1 (BDF1) mice
test_parameters: endpoint: mean survival time; dose: 300.0 mg/kg/injection; schedule: Q01DX001 (ip); vehicle: carboxymethylcellulose (CMC); higher = longer survival
Toxic doses and inconclusive results are not listed.

Give T/C for all molecules that follow.
1. CCCCCCCCCC(=O)N1CCC(CCCc2ccccc2)CC1
2. C[n+]1ccc(/C=C/c2ccc(O)c3ccccc23)c2ccccc21
3. CC1(C)C(C(=O)O)CC1C(=O)C(=O)O (stereo unspecified)

1: 95 % of control; 2: 115 % of control; 3: 94 % of control

Field: T/C. Fill in for each record below.
1. CC(=O)N(C1=CC(=O)c2ccccc2C1=O)c1ccc(Cl)cc1
2. O=NN(CCCl)C(=O)Nc1ccc2c(c1)Cc1ccccc1-2
3. O=[N+]([O-])c1ccc(C(SCc2ccccc2)SCc2ccccc2)cc1

1. 97 % of control
2. 102 % of control
3. 97 % of control
